All figures here come from IntAct's records for PubMed 35512704.

B1: Speckle-type POZ protein (Homo sapiens), O43791 (parent)
chain: MSRVPSPPPPAEMSSGPVAESWCYTQIKVVKFSYMWTINNFSFCREEMGEVIKSSTFSSGANDKLKWCLRVNPKGLDEESKDYLSLYLLLVSCPKSEVRAKFKFSILNAKGEETKAMESQRAYRFVQGKDWGFKKFIRRDFLLDEANGLLPDDKLTLFCEVSVVQDSVNISGQNTMNMVKVPECRLADELGGLWENSRFTDCCLCVAGQEFQAHKAILAARSPVFSAMFEHEMEESKKNRVEINDVEPEVFKEMMCFIYTGKAPNLDKMADDLLAAADKYALERLKVMCEDALCSNLSVENAAEILILADLHSADQLKTQAVDFINYHASDVLETSGWKSMVVSHPHLVAEAYRSLASAQCPFLGPPRKRLKQS

# Variants of: B1
# setup conditions: with jun_human JUN
metric: effect of a mutation on the interaction

F133L :: with no effect
F133V :: with no effect
